Test Summary: Ocular tissue concentrations (aqueous humor, vitreous humor, iris, retina, choroid, cornea) after topical ocular, subcutaneous and intravitreal administration
Type: in vivo, New Zealand White rabbits
Measurement Parameters: New Zealand White, rabbit, iris, subcutaneous, 5 mg/kg/dose, Iris, 1 hr; sodium salt, subcutaneous 5 mg/kg/dose, Group 2; read-out: Iris Average
Assay Readout: concentration at 1 h (ng/g)
Express the result in ng/g but write the number alone.

Task: Given COC(=O)N[C@@H](Cc1ccccc1)C(=O)N[C@@H](Cc1ccc(NS(=O)(=O)O)cc1)c1csc(-c2cccs2)n1 , state its recorded concentration at 1 h.
Output: 94.7

====

Test Summary: Ocular tissue concentrations (aqueous humor, vitreous humor, iris, retina, choroid, cornea) after topical ocular, subcutaneous and intravitreal administration
Type: in vivo, New Zealand White rabbits
Measurement Parameters: New Zealand White, rabbit, retina, other: intravitreal, 2.5 mg/eye, Retina, 48 hr, right eye, intravitreal 2.5 mg/eye (group 5), individual animals; read-out: Conc. (ng/g) OD
Assay Readout: concentration at 48 h (ng/g)
Express the result in ng/g but write the number alone.

Task: Given COC(=O)N[C@@H](Cc1ccccc1)C(=O)N[C@@H](Cc1ccc(NS(=O)(=O)O)cc1)c1csc(-c2cccs2)n1 [Compound 1] , state its recorded concentration at 48 h.
Output: 734000

====

Test Summary: Plasma concentrations and pharmacokinetic parameters after topical ocular, subcutaneous and intravitreal administration
Format: in vivo, New Zealand White rabbits
Measurement Parameters: New Zealand White, rabbit, plasma, other: intravitreal, 2.5 mg/eye, intravitreal 2.5 mg/eye (~1.54 mg/kg), suspension; 72.0 hr; read-out: plasma Average
Assay Readout: concentration at 72 h (ng/mL)
Express the result in ng/mL but write the number alone.

Task: Given COC(=O)N[C@@H](Cc1ccccc1)C(=O)N[C@@H](Cc1ccc(NS(=O)(=O)O)cc1)c1csc(-c2cccs2)n1 [Compound 1 free acid] , state its recorded concentration at 72 h.
Output: 1.65

====

Test Summary: Ocular tissue concentrations (aqueous humor, vitreous humor, iris, retina, choroid, cornea) after topical ocular, subcutaneous and intravitreal administration
Format: in vivo, New Zealand White rabbits
Measurement Parameters: New Zealand White, rabbit, retina homogenate, subcutaneous, 5 mg/kg/dose, Retina homogenate, 0.5 hr, OS; sodium salt, subcutaneous 5 mg/kg/dose, Group 2; read-out: Retina Conc. (ng/mL) OS
Assay Readout: concentration at 0.5 hr (ng/mL)
Express the result in ng/mL but write the number alone.

Task: Given COC(=O)N[C@@H](Cc1ccccc1)C(=O)N[C@@H](Cc1ccc(NS(=O)(=O)O)cc1)c1csc(-c2cccs2)n1 , state its recorded concentration at 0.5 hr.
Output: 4.36

====

Test Summary: Ocular tissue concentrations (aqueous humor, vitreous humor, iris, retina, choroid, cornea) after topical ocular, subcutaneous and intravitreal administration
Type: in vivo, New Zealand White rabbits
Measurement Parameters: New Zealand White, rabbit, choroid homogenate, subcutaneous, 5 mg/kg/dose, Choroid homogenate, 4 hr, OD; free acid, subcutaneous 5 mg/kg/dose, Group 3; read-out: Choroid Conc. (ng/mL) OD
Assay Readout: concentration at 4 h (ng/mL)
Express the result in ng/mL but write the number alone.

Task: Given COC(=O)N[C@@H](Cc1ccccc1)C(=O)N[C@@H](Cc1ccc(NS(=O)(=O)O)cc1)c1csc(-c2cccs2)n1 , state its recorded concentration at 4 h.
Output: 4.82

====

Test Summary: Ocular tissue concentrations (aqueous humor, vitreous humor, iris, retina, choroid, cornea) after topical ocular, subcutaneous and intravitreal administration
Assay type: in vivo, New Zealand White rabbits
Measurement Parameters: New Zealand White, rabbit, iris, subcutaneous, 5 mg/kg/dose, TABLE 16: Iris, 4 hr; free acid, subcutaneous 5 mg/kg/dose, Group 3; read-out: Iris Average
Assay Readout: concentration at 4 h (ng/g)
Express the result in ng/g but write the number alone.

Task: Given COC(=O)N[C@@H](Cc1ccccc1)C(=O)N[C@@H](Cc1ccc(NS(=O)(=O)O)cc1)c1csc(-c2cccs2)n1 , state its recorded concentration at 4 h.
Output: 17.5

====

Test Summary: Ocular tissue concentrations (aqueous humor, vitreous humor, iris, retina, choroid, cornea) after topical ocular, subcutaneous and intravitreal administration
Type: in vivo, New Zealand White rabbits
Measurement Parameters: New Zealand White, rabbit, cornea, other: intravitreal, 2.5 mg/eye, Cornea, 6.0 hr, average, intravitreal 2.5 mg/eye (group 5); read-out: Avg.
Assay Readout: concentration at 6 hr (ng/g)
Express the result in ng/g but write the number alone.

Task: Given COC(=O)N[C@@H](Cc1ccccc1)C(=O)N[C@@H](Cc1ccc(NS(=O)(=O)O)cc1)c1csc(-c2cccs2)n1 , state its recorded concentration at 6 hr.
Output: 54600

====

Test Summary: Ocular tissue concentrations (aqueous humor, vitreous humor, iris, retina, choroid, cornea) after topical ocular, subcutaneous and intravitreal administration
Type: in vivo, New Zealand White rabbits
Measurement Parameters: New Zealand White, rabbit, cornea, subcutaneous, 5 mg/kg/dose, Cornea, 2 hr; sodium salt, subcutaneous 5 mg/kg/dose, Group 2; read-out: Cornea Average
Assay Readout: concentration at 2 h (ng/g)
Express the result in ng/g but write the number alone.

Task: Given COC(=O)N[C@@H](Cc1ccccc1)C(=O)N[C@@H](Cc1ccc(NS(=O)(=O)O)cc1)c1csc(-c2cccs2)n1 , state its recorded concentration at 2 h.
Output: 9.45

====

Test Summary: Ocular tissue concentrations (aqueous humor, vitreous humor, iris, retina, choroid, cornea) after topical ocular, subcutaneous and intravitreal administration
Format: in vivo, New Zealand White rabbits
Measurement Parameters: New Zealand White, rabbit, aqueous humor, topical, 1.2 mg/eye, Group 1 topical ocular 1.2 mg/eye; 1.0 hr; read-out: aqueous humor Conc., individual eyes (OD, OS)
Experimental: To measure the concentration of Compound 1 in plasma and ocular tissues following topical ocular, subcutaneous, and intravitreal administration, New Zealand White rabbits were administered Compound 1, and plasma and ocular samples were collected at pre-determined time points. […] Ocular tissue samples from both eyes of each animal were collected and weights were recorded. Plasma and ocular tissue sample concentrations of Compound 1 were determined by LC-MS/MS. […]
Structures can show the parent of a compound that is named as a salt.
Assay Readout: concentration at 1 hr (ng/mL)
Express the result in ng/mL but write the number alone.

Task: Given COC(=O)N[C@@H](Cc1ccccc1)C(=O)N[C@@H](Cc1ccc(NS(=O)(=O)O)cc1)c1csc(-c2cccs2)n1 [Compound 1 sodium salt] , state its recorded concentration at 1 hr.
Output: 4.03

====

Test Summary: Ocular tissue concentrations (aqueous humor, vitreous humor, iris, retina, choroid, cornea) after topical ocular, subcutaneous and intravitreal administration
Type: in vivo, New Zealand White rabbits
Measurement Parameters: New Zealand White, rabbit, iris, topical, 1.2 mg/eye, topical ocular 1.2 mg/eye (~0.7 mg/kg/dose); 0.5 hr; read-out: Iris tissue Conc., individual eyes (OD, OS)
Where a name gives a salt, the structure may show the parent alone.
Assay Readout: concentration at 0.5 hr (ng/g)
Express the result in ng/g but write the number alone.

Task: Given COC(=O)N[C@@H](Cc1ccccc1)C(=O)N[C@@H](Cc1ccc(NS(=O)(=O)O)cc1)c1csc(-c2cccs2)n1 [Compound 1 sodium salt] , state its recorded concentration at 0.5 hr.
Output: 17.8

====

Test Summary: Ocular tissue concentrations (aqueous humor, vitreous humor, iris, retina, choroid, cornea) after topical ocular, subcutaneous and intravitreal administration
Type: in vivo, New Zealand White rabbits
Measurement Parameters: New Zealand White, rabbit, vitreous humor, other: intravitreal, 2.5 mg per eye, Group 4 intravitreal 2.5 mg per eye; 72 hr; read-out: vitreous humor Conc., individual eyes (OD, OS)
Where a name gives a salt, the structure may show the parent alone.
Assay Readout: concentration at 72 h (ng/mL)
Express the result in ng/mL but write the number alone.

Task: Given COC(=O)N[C@@H](Cc1ccccc1)C(=O)N[C@@H](Cc1ccc(NS(=O)(=O)O)cc1)c1csc(-c2cccs2)n1 [Compound 1 sodium salt] , state its recorded concentration at 72 h.
Output: 14500

====

Test Summary: Ocular tissue concentrations (aqueous humor, vitreous humor, iris, retina, choroid, cornea) after topical ocular, subcutaneous and intravitreal administration
Assay type: in vivo, New Zealand White rabbits
Measurement Parameters: New Zealand White, rabbit, choroid, topical, 1.2 mg/eye, topical ocular 1.2 mg/eye (~0.7 mg/kg/dose); 2 hr; read-out: Choroid tissue Average
Method: To measure the concentration of Compound 1 in plasma and ocular tissues following topical ocular, subcutaneous, and intravitreal administration, New Zealand White rabbits were administered Compound 1, and plasma and ocular samples were collected at pre-determined time points. […] Ocular tissue samples from both eyes of each animal were collected and weights were recorded. Plasma and ocular tissue sample concentrations of Compound 1 were determined by LC-MS/MS. […]
Counter-ions that a name gives are not always drawn.
Assay Readout: concentration at 2 hr (ng/g)
Express the result in ng/g but write the number alone.

Task: Given COC(=O)N[C@@H](Cc1ccccc1)C(=O)N[C@@H](Cc1ccc(NS(=O)(=O)O)cc1)c1csc(-c2cccs2)n1 [Compound 1 sodium salt] , state its recorded concentration at 2 hr.
Output: 59.2

====

Test Summary: Ocular tissue concentrations (aqueous humor, vitreous humor, iris, retina, choroid, cornea) after topical ocular, subcutaneous and intravitreal administration
Format: in vivo, New Zealand White rabbits
Measurement Parameters: New Zealand White, rabbit, retina, subcutaneous, 5 mg/kg/dose, Retina, 1 hr, OS; sodium salt, subcutaneous 5 mg/kg/dose, Group 2; read-out: Retina Conc. (ng/g) OS
Assay Readout: concentration at 1 h (ng/g)
Express the result in ng/g but write the number alone.

Task: Given COC(=O)N[C@@H](Cc1ccccc1)C(=O)N[C@@H](Cc1ccc(NS(=O)(=O)O)cc1)c1csc(-c2cccs2)n1 , state its recorded concentration at 1 h.
Output: 43.2
